# System: M14 melanoma
# Protocol text: NCI tumour cell line growth inhibition, 48 h

[
  {
    "Molecule": "Cc1cccc2c1C(=O)OC2(c1cccc2ccccc12)c1cccc2ccccc12",
    "TGI": "> 100 µM"
  },
  {
    "Molecule": "CC1CC/C(=C\\c2ccc(F)cc2)C2=C1C(c1ccc(F)cc1)NC(=S)N2 (configuration not stated)",
    "TGI": "> 100 µM"
  },
  {
    "Molecule": "Cc1cccc2c1C(=O)/C(=C/c1ccccc1C(=O)O)C2",
    "TGI": "> 100 µM"
  },
  {
    "Molecule": "CC(C)C(NCc1c2ccccc2nc2ccccc12)C(=O)O (configuration not stated)",
    "TGI": "> 100 µM"
  },
  {
    "Molecule": "Cc1nc(C)c(C(=O)NNC(=O)c2ccccc2)cc1C(=O)NNC(=O)c1ccccc1",
    "TGI": "> 100 µM"
  },
  {
    "Molecule": "CO/C=C(/C(=O)OC)c1ccccc1[C@H]1C[C@@H]1c1ccccc1",
    "TGI": "68.8 µM"
  },
  {
    "Molecule": "C[C@@H]1CC[C@H]2C(CN(C)CC3=C(C(F)(F)F)O[C@@H]4O[C@@]5(C)CC[C@H]6[C@H](C)CC[C@@H]3[C@@]46OO5)=C(C(F)(F)F)O[C@@H]3O[C@@]4(C)CC[C@@H]1[C@]32OO4",
    "TGI": "> 100 µM"
  },
  {
    "Molecule": "CCOC(=O)Nc1ccc2nc(Sc3ccc(Cl)cc3)sc2c1",
    "TGI": "24.6 µM"
  },
  {
    "Molecule": "C/C(=C\\c1ccccc1)n1c(=O)cc(C)n1C",
    "TGI": "> 100 µM"
  },
  {
    "Molecule": "Nc1nn2cc(-c3ccccc3)[n+](CC(=O)c3ccccc3)c2s1",
    "TGI": "40.6 µM"
  },
  {
    "Molecule": "COc1ccc(C2CCc3c(cnc4nc(N)nc(N)c34)C2)cc1 (configuration not stated)",
    "TGI": "> 100 µM"
  },
  {
    "Molecule": "O=C1NC(=Nc2ccccc2Cl)SC1C(=O)Nc1ccc([N+](=O)[O-])cc1[N+](=O)[O-] (configuration not stated)",
    "TGI": "> 100 µM"
  },
  {
    "Molecule": "CCOC(=O)/C=C/C(Br)=C(Br)/C=C/C(=O)OCC",
    "TGI": "30.3 µM"
  },
  {
    "Molecule": "Clc1ccc(C2=NNC(c3cccc(Cl)c3)C2)cc1 (configuration not stated)",
    "TGI": "> 100 µM"
  },
  {
    "Molecule": "CC[C@@]1(O)C(=O)N(CCN(C)C)Cc2c1cc1n(c2=O)Cc2cc3ccccc3nc2-1",
    "TGI": "> 100 µM"
  },
  {
    "Molecule": "CO[C@H]1/C=C/C=C/C=C/C[C@H](OC(=O)[C@@H](C)NC(=O)C2CCCCC2)[C@H](C)[C@@H](O)/C(C)=C\\CCC2=CC(=O)C=C(NC(=O)C1)C2=O",
    "TGI": "0.746 µM"
  },
  {
    "Molecule": "CC(=O)OCC12C(OC(C)=O)C[C@@H](C)C3(CC(c4ccoc4)OC3=O)C1CCC(OC(C)=O)C21CO1 (some centres not stated)",
    "TGI": "> 100 µM"
  }
]
